The measured values listed here are drawn from BindingDB's records for doi:10.1016/S0960-894X(97)10088-9.

Experiment: Compound was evaluated for inhibitory activity against Isoleucyl-tRNA synthetase
Measured IC50, listed per entry.
Please give a number only; it is taken to be in nM.

Query string: Entry "CCCCS(=O)(=O)N[C@H]1CO[C@@H](C/C=C/C(=O)OCCCCCCCCC(=O)OC)[C@H](O)[C@@H]1O" has what IC50?
Result string: 300

Query string: Report IC50 for "COC(=O)CCCCCCCCOC(=O)/C=C/C[C@@H]1OC[C@H](NS(=O)(=O)CCCCl)[C@@H](O)[C@H]1O" please.
Result string: 100

Query string: Requested field: IC50. Item: "COC(=O)CCCCCCCCOC(=O)/C=C/C[C@@H]1OC[C@H](NS(=O)(=O)c2cccc(Cl)c2)[C@@H](O)[C@H]1O"
Result string: 300
